Every entry's value here was drawn from paper PMC11859905.

Target: porcine pancreatic lipase (Sus scrofa, UniProt P00591)
Sequence (P00591 1-450): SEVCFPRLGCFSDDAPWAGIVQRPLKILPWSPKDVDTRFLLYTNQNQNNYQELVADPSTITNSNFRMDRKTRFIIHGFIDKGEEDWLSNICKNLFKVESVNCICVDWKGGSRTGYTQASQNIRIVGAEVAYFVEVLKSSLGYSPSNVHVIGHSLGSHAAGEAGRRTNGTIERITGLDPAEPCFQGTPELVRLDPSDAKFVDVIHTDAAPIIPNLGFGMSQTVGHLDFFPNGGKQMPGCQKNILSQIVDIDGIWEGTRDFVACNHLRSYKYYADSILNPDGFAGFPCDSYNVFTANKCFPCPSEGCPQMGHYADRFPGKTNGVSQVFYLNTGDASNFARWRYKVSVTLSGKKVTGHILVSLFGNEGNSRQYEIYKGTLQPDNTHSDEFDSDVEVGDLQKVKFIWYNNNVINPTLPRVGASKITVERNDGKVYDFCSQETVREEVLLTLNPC
Test: In vitro assay using porcine pancreatic lipase (4-MUO hydrolysis, fluorometric);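 note: product 4-methylumbeliferone formation tracked fluorometrically, catalytic rate from RFU slope over the 10–30 min window, compounds checked beforehand for own fluorescence, at least three independent experiments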
property label: IC50 (µM)
All answers are understood in µM, so give the number only.

// map "CCCCc1c(-c2ccc(O)c(O)c2)oc2cc(O)cc(O)c2c1=O" to recorded IC50 (system: porcine pancreatic lipase (Sus scrofa, UniProt P00591))
13

Find IC50 (porcine pancreatic lipase (Sus scrofa, UniProt P00591)) for the entry "CCCCCCCCCCc1c(-c2ccc(O)c(O)c2)oc2cc(O)cc(O)c2c1=O"
7.3

What measured IC50 is associated with "O=c1cc(-c2ccc(O)c(O)c2)oc2cc(O)cc(O)c12" on porcine pancreatic lipase (Sus scrofa, UniProt P00591)?
32

Under porcine pancreatic lipase (Sus scrofa, UniProt P00591): IC50 value of "CCCCCCc1c(-c2ccc(O)c(O)c2)oc2cc(O)cc(O)c2c1=O" ?
10.1

Give IC50 (porcine pancreatic lipase (Sus scrofa, UniProt P00591)) of the following compound: "O=c1c(O)c(-c2cc(O)c(O)c(O)c2)oc2cc(O)cc(O)c12"
16

Quick check: IC50 on porcine pancreatic lipase (Sus scrofa, UniProt P00591), item "O=c1cc(-c2cc(O)c(O)c(O)c2)oc2cccc(O)c12" ?
20

Lab note: need IC50 with porcine pancreatic lipase (Sus scrofa, UniProt P00591) for entry "O=c1cc(-c2ccc(O)cc2)oc2cc(O)cc(O)c12" , please look it up.
41

porcine pancreatic lipase (Sus scrofa, UniProt P00591) / IC50 / O=C(O[C@@H]1Cc2c(O)cc(O)cc2O[C@@H]1c1cc(O)c(O)c(O)c1)c1cc(O)c(O)c(O)c1 [Flavonoid 41, (–)-Epigallocatechin gallate] : value?
32

Item "O=c1cc(-c2ccccc2)oc2c(O)c(O)cc(O)c12" with porcine pancreatic lipase (Sus scrofa, UniProt P00591) - IC50?
98

# value lookup — system porcine pancreatic lipase (Sus scrofa, UniProt P00591), readout IC50, item "O=c1cc(-c2cccc(O)c2)oc2cc(O)cc(O)c12"
73
